Experimental Setup: in n-heptane, 298.15 K
Property Label: solubility (mole fraction)

[[record]]
smiles_code = "CCCCN(CCCC)c1ccc(C(=O)c2ccccc2C(=O)O)c(O)c1"
property_label = "solubility (mole fraction)"
value_reported = "2.7e-05"


====

Experimental Setup: in n-butyl acetate, 298.15 K
Property Label: solubility (mole fraction)

[[record]]
smiles_code = "CCCCN(CCCC)c1ccc(C(=O)c2ccccc2C(=O)O)c(O)c1"
value_reported = 0.00639


====

Experimental Setup: in isopropanol, 323.15 K
Property Label: solubility (mole fraction)

[[record]]
smiles_code = "CCCCN(CCCC)c1ccc(C(=O)c2ccccc2C(=O)O)c(O)c1"
value_reported = 0.0147

